Hello, the source for this data is patent US20260242759A1, in case you need it.

# Tested on: HEK293 cells overexpressing the ghrelin receptor
# protocolNotes: Fluorescence microscopy of cell permeability
# Format: cell-based, human
# experimentalSetup: 5 μM, 3 h 45 min, 37° C.
quantityName: SulfoCy5-labeled peptide observed inside cells

substance: H-C(SulfoCy5)-Ahx-RRRRRRRRFAc[PraVKDAzk]ILQLNLKEYNLV-OH [SBL-GQ-23]
measValue: entered cells

substance: H-C(SulfoCy5)-Ahx-KKKFAc[PraVKDAzk]ILQLNLKEYNLV-OH [SBL-GQ-21]
measValue: very little or no

substance: H-C(SulfoCy5)-Ahx-RRWWRRWRRFAc[PraVKDAzk]ILQLNLKEYNLV-OH [SBL-GQ-24]
measValue: entered cells

substance: H-C(SulfoCy5)-Ahx-RRRRFAc[PraVKDAzk]ILQLNLKEYNLV-OH [SBL-GQ-22]
measValue: very little or no
